# reported pKd; entries follow
molecular target: T1, TNF alpha (UniProt P01375 77-233, limits assumed); assay: SPR (BIAcore 3000), TNF alpha captured by immobilised antibody AHC3712, binder injected
T1 construct: also called tumour necrosis factor; TNFSF2
T1 sequence (P01375 77-233 limits assumed): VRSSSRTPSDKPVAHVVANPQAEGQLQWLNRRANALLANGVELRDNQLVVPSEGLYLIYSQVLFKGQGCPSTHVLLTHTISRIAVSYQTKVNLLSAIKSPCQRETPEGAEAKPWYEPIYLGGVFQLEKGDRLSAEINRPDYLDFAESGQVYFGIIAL
pKd is defined as minus the log10 of a concentration measured in mol/L.

Which measured pKd value corresponds to TN3-2-D (monomeric) (designed binder, Purified monomer from the E. coli periplasm (pBAD) for SPR) ALQTVCLKGTKVHMKCFLAFTQTKTFHEASEDCISRGGTLSTPQTGSENDALYEYLRQSVGNEAEIWLGLNKVRSRYFWIDMTGTRIAYKNWETEITAQPDPNNRENCAVLSGAANGKWFGKRCRDQLPYICQFGIV ?
7.30

Repeat for the following binder: TN3-2-B (monomeric) (designed binder, Purified monomer from the E. coli periplasm (pBAD) for SPR) ALQTVCLKGTKVHMKCFLAFTQTKTFHEASEDCISRGGTLSTPQTGSENDALYEYLRQSVGNEAEIWLGLNKVRSRYFWMDMTGTRIAYKNWETEITAQPDPTNNENCAVLSGAANGKWFGKRCRDQLPYICQFGIV
7.14
